Test system: CAL-29 (Bladder Carcinoma)
Test: Bliss excess, mean over the matrix (fraction); higher = more synergy
Listed here: items and their measured Bliss excess.
Keep the answer to the number alone.

CC(=O)c1c(C)c2cnc(Nc3ccc(N4CCNCC4)cn3)nc2n(C2CCCC2)c1=O [Palbociclib] + Cc1c2c(nn1C)CSCc1cc(n(C)n1)CSc1cc(c3ccccc3c1)OCCCc1c(C(=O)O)n(C)c3c-2c(Cl)ccc13 [AZD5991] (first compound max 10 µM, 7x7, partner max 1 µM) :: -0.0532

Endpoint output: Bliss excess of CC1(C)CCC(CN2CCN(c3ccc(C(=O)NS(=O)(=O)c4ccc(NCC5CCOCC5)c([N+](=O)[O-])c4)c(Oc4cnc5[nH]ccc5c4)c3)CC2)=C(c2ccc(Cl)cc2)C1 [Venetoclax] + COc1cc(Nc2ncc3c(n2)-c2ccc(Cl)cc2C(c2c(F)cccc2OC)=NC3)ccc1C(=O)O [Alisertib] (first compound max 1 µM, 7x7, partner max 10 µM) . Value? -0.0554

---

Tested on: FU97 (Gastric Carcinoma)
Experiment: combination Emax (second highest fraction inhibited in the dose matrix, 72 h); higher = more inhibition; extreme values may be limits of the assay
assayReadout: combination Emax
Keep the answer to the number alone.

Endpoint output: combination Emax of CC(=O)c1c(C)c2cnc(Nc3ccc(N4CCNCC4)cn3)nc2n(C2CCCC2)c1=O [Palbociclib] + Cn1cnc2c(F)c(Nc3ccc(Br)cc3Cl)c(C(=O)NOCCO)cc21 [Selumetinib] (first compound max 10 µM, 7x7, partner max 10 µM) . Value? 0.377

---

Test system: MDST8 (Colorectal Carcinoma)
Assay: Bliss excess, mean over the matrix (fraction); higher = more synergy
assayReadout: Bliss excess
Keep the answer to the number alone.

Some compounds with known Bliss excess results, for comparison:
NC1(C(=O)N[C@@H](CCO)c2ccc(Cl)cc2)CCN(c2ncnc3[nH]ccc23)CC1 [Capivasertib] + C[C@@H]1COCCN1C2=NC(=NC(=C2)C3(CC3)[S@](=N)(=O)C)C4=C5C=CNC5=NC=C4 [AZD6738] (first compound max 10 µM, 7x7, partner max 10 µM) :: -0.0277
COc1nnc2ccc(N3CCC(c4ccc(OCCN5CCN(C)C(=O)[C@H]5C)cc4)CC3)nn12 [AZD5153] + CCN(CCO)CCCOc1ccc2c(Nc3cc(CC(=O)Nc4cccc(F)c4)[nH]n3)ncnc2c1 [AZD2811] (first compound max 1 µM, 7x7, partner max 1 µM) :: 0.0761

Now consider a different compound.
Give Bliss excess (MDST8 (Colorectal Carcinoma)) of the following compound: CN(CCO)CC[C@H](CSc1ccccc1)Nc1ccc(S(=O)(=O)NC(=O)c2ccc(N3CCC([C@@H](O)c4ccccc4-c4ccc(Cl)cc4)CC3)cc2)cc1S(=O)(=O)C(F)(F)F [AZD4320] + C[C@@H]1COCCN1C2=NC(=NC(=C2)C3(CC3)[S@](=N)(=O)C)C4=C5C=CNC5=NC=C4 [AZD6738] (first compound max 1 µM, 7x7, partner max 10 µM) -0.0578

---

Listed here: items and their measured Bliss excess.
System: TT (Thyroid Gland Carcinoma)
Assay: Bliss excess, mean over the matrix (fraction); higher = more synergy
Keep the answer to the number alone.

NC1(C(=O)N[C@@H](CCO)c2ccc(Cl)cc2)CCN(c2ncnc3[nH]ccc23)CC1 [Capivasertib] + CCN(CCO)CCCOc1ccc2c(Nc3cc(CC(=O)Nc4cccc(F)c4)[nH]n3)ncnc2c1 [AZD2811] (first compound max 10 µM, 7x7, partner max 1 µM) :: 0.002
CN(C)CCCOc1ccc(-c2ccc3ncc4c(c3c2)n(C2CCOCC2)c(=O)n4C)cn1 [AZD0156] + C[C@@H]1COCCN1C2=NC(=NC(=C2)C3(CC3)[S@](=N)(=O)C)C4=C5C=CNC5=NC=C4 [AZD6738] (first compound max 1 µM, 7x7, partner max 10 µM) :: -0.0583
C[C@@H](c1ccc2nccn2c1)n1nnc2ncc(-c3cnn(C)c3)nc21 [Savolitinib] + Cc1c2c(nn1C)CSCc1cc(n(C)n1)CSc1cc(c3ccccc3c1)OCCCc1c(C(=O)O)n(C)c3c-2c(Cl)ccc13 [AZD5991] (first compound max 1 µM, 7x7, partner max 1 µM) :: -0.0102
Cc1c2c(nn1C)CSCc1cc(n(C)n1)CSc1cc(c3ccccc3c1)OCCCc1c(C(=O)O)n(C)c3c-2c(Cl)ccc13 [AZD5991] + CC1(C)CCC(CN2CCN(c3ccc(C(=O)NS(=O)(=O)c4ccc(NCC5CCOCC5)c([N+](=O)[O-])c4)c(Oc4cnc5[nH]ccc5c4)c3)CC2)=C(c2ccc(Cl)cc2)C1 [Venetoclax] (first compound max 1 µM, 7x7, partner max 1 µM) :: 0.0887

Now consider a different compound.
Endpoint output: Bliss excess of Cc1cc2ncnn2cc1Nc1ncc2c(n1)n(C1CCOCC1)c(=O)n2C [AZD7648] + O=C(c1cc(Cc2n[nH]c(=O)c3ccccc23)ccc1F)N1CCN(C(=O)C2CC2)CC1 [Olaparib] (first compound max 10 µM, 7x7, partner max 10 µM) . Value? -0.0702

---

Tested on: IGR-37 (Melanoma)
Assay: combination Emax (second highest fraction inhibited in the dose matrix, 72 h); higher = more inhibition; extreme values may be limits of the assay
Listed here: items and their measured combination Emax.
Keep the answer to the number alone.

Endpoint output: combination Emax of CC1(C)CCC(CN2CCN(c3ccc(C(=O)NS(=O)(=O)c4ccc(NCC5CCOCC5)c([N+](=O)[O-])c4)c(Oc4cnc5[nH]ccc5c4)c3)CC2)=C(c2ccc(Cl)cc2)C1 [Venetoclax] + C=CCn1c(=O)c2cnc(Nc3ccc(N4CCN(C)CC4)cc3)nc2n1-c1cccc(C(C)(C)O)n1 [AZD1775] (first compound max 1 µM, partner max 1 µM) . Value? 0.852

Endpoint output: combination Emax of Cc1cc2ncnn2cc1Nc1ncc2c(n1)n(C1CCOCC1)c(=O)n2C [AZD7648] + CN(C)CCCOc1ccc(-c2ccc3ncc4c(c3c2)n(C2CCOCC2)c(=O)n4C)cn1 [AZD0156] (first compound max 10 µM, 7x7, partner max 1 µM) . Value? 0.263

---

Tested on: NCI-H1650 (Lung Adenocarcinoma)
Test: combination Emax (second highest fraction inhibited in the dose matrix, 72 h); higher = more inhibition; extreme values may be limits of the assay
Listed here: items and their measured combination Emax.
Keep the answer to the number alone.

Some compounds with known combination Emax results, for comparison:
COc1cc2c(cc1OCCCCCOc1cc3c(cc1OC)C(=O)N1C=C(C)C[C@H]1C=N3)N=C[C@@H]1CC(C)=CN1C2=O [SG3199] + O=C(c1cc(Cc2n[nH]c(=O)c3ccccc23)ccc1F)N1CCN(C(=O)C2CC2)CC1 [Olaparib] (first compound max 0.001 µM, 7x7, partner max 10 µM) :: 0.0953
CC1(C)CCC(CN2CCN(c3ccc(C(=O)NS(=O)(=O)c4ccc(NCC5CCOCC5)c([N+](=O)[O-])c4)c(Oc4cnc5[nH]ccc5c4)c3)CC2)=C(c2ccc(Cl)cc2)C1 [Venetoclax] + C[C@@H]1COCCN1C2=NC(=NC(=C2)C3(CC3)[S@](=N)(=O)C)C4=C5C=CNC5=NC=C4 [AZD6738] (first compound max 1 µM, 7x7, partner max 10 µM) :: 0.402
CCN(CCO)CCCOc1ccc2c(Nc3cc(CC(=O)Nc4cccc(F)c4)[nH]n3)ncnc2c1 [AZD2811] + C[C@@H]1COCCN1C2=NC(=NC(=C2)C3(CC3)[S@](=N)(=O)C)C4=C5C=CNC5=NC=C4 [AZD6738] (first compound max 1 µM, 7x7, partner max 10 µM) :: 0.414
CCN(CCO)CCCOc1ccc2c(Nc3cc(CC(=O)Nc4cccc(F)c4)[nH]n3)ncnc2c1 [AZD2811] + O=C(c1cc(Cc2n[nH]c(=O)c3ccccc23)ccc1F)N1CCN(C(=O)C2CC2)CC1 [Olaparib] (first compound max 1 µM, 7x7, partner max 10 µM) :: 0.249
CN(C)CCCOc1ccc(-c2ccc3ncc4c(c3c2)n(C2CCOCC2)c(=O)n4C)cn1 [AZD0156] + O=C(c1cc(Cc2n[nH]c(=O)c3ccccc23)ccc1F)N1CCN(C(=O)C2CC2)CC1 [Olaparib] (first compound max 3 µM, partner max 3 µM) :: 0.226
NC1(C(=O)N[C@@H](CCO)c2ccc(Cl)cc2)CCN(c2ncnc3[nH]ccc23)CC1 [Capivasertib] + COc1nnc2ccc(N3CCC(c4ccc(OCCN5CCN(C)C(=O)[C@H]5C)cc4)CC3)nn12 [AZD5153] (first compound max 10 µM, 7x7, partner max 1 µM) :: 0.442
CN(C)CCCOc1ccc(-c2ccc3ncc4c(c3c2)n(C2CCOCC2)c(=O)n4C)cn1 [AZD0156] + C=CCn1c(=O)c2cnc(Nc3ccc(N4CCN(C)CC4)cc3)nc2n1-c1cccc(C(C)(C)O)n1 [AZD1775] (first compound max 1 µM, partner max 1 µM) :: 0.385
COc1cc2ncnc(Nc3ccc(F)c(Cl)c3)c2cc1OCCCN1CCOCC1 [Gefitinib] + CC(C)n1c(=O)n(C)c2cnc3cc(F)c(-c4ccc(OCCCN5CCCCC5)nc4)cc3c21 [AZD1390] (first compound max 10 µM, 7x7, partner max 0.3 µM) :: 0.236

Endpoint output: combination Emax of CC1(C)CCC(CN2CCN(c3ccc(C(=O)NS(=O)(=O)c4ccc(NCC5CCOCC5)c([N+](=O)[O-])c4)c(Oc4cnc5[nH]ccc5c4)c3)CC2)=C(c2ccc(Cl)cc2)C1 [Venetoclax] + C1CN(CCC1(C(=O)N[C@@H](CCO)C2=CC=C(C=C2)Cl)N)C3=NC=NC4=C3C=CN4 [Capivasertib] (first compound max 1 µM, 7x7, partner max 3 µM) . Value? 0.164

Endpoint output: combination Emax of CN(CCO)CC[C@H](CSc1ccccc1)Nc1ccc(S(=O)(=O)NC(=O)c2ccc(N3CCC([C@@H](O)c4ccccc4-c4ccc(Cl)cc4)CC3)cc2)cc1S(=O)(=O)C(F)(F)F [AZD4320] + Cc1cc2ncnn2cc1Nc1ncc2c(n1)n(C1CCOCC1)c(=O)n2C [AZD7648] (first compound max 1 µM, 7x7, partner max 10 µM) . Value? 0.245

Endpoint output: combination Emax of COc1cccc(OCCCN)c1-c1cc(Nc2cnc(C#N)cn2)n[nH]1 [Prexasertib] + CN(C)CCCOc1ccc(-c2ccc3ncc4c(c3c2)n(C2CCOCC2)c(=O)n4C)cn1 [AZD0156] (first compound max 1 µM, 7x7, partner max 1 µM) . Value? 0.51

Endpoint output: combination Emax of CC1(C)CCC(CN2CCN(c3ccc(C(=O)NS(=O)(=O)c4ccc(NCC5CCOCC5)c([N+](=O)[O-])c4)c(Oc4cnc5[nH]ccc5c4)c3)CC2)=C(c2ccc(Cl)cc2)C1 [Venetoclax] + C=CCn1c(=O)c2cnc(Nc3ccc(N4CCN(C)CC4)cc3)nc2n1-c1cccc(C(C)(C)O)n1 [AZD1775] (first compound max 1 µM, partner max 1 µM) . Value? 0.433

Endpoint output: combination Emax of COc1cccc2c1C(=O)c1c(O)c3c(c(O)c1C2=O)C[C@@](O)(C(=O)CO)C[C@@H]3O[C@H]1C[C@H](N)[C@H](O)[C@H](C)O1 [Doxorubicin] + Cc1cc2ncnn2cc1Nc1ncc2c(n1)n(C1CCOCC1)c(=O)n2C [AZD7648] (first compound max 1 µM, 7x7, partner max 10 µM) . Value? 0.591
